Data provenance: paper PMC8438977

target: α-amylase (AA); experiment: α-amylase inhibitory activity (AAI), starch-iodine assay; conditions: in 50% DMSO
pIC50: −log10 of the molar value.
value-kind: pIC50

[[record]]
compound = "Oc1cc(O)c2c(c1)O[C@H](c1ccc(O)c(O)c1)[C@@H](O)C2 [Compound 3, (+)-catechin]"
recorded_measurement = 2.65


* * *

test system: Plasmodium falciparum K1CB1; assay: Antimalaria assay, [3H] hypoxanthine incorporation, K1CB1 strain; format: cell-based; conditions: Plasmodium falciparum, read-out: P. f (IC50 μM) K1CB1
value-kind: IC50

[[record]]
molecule = "COc1cc2c(cc1-c1cc3cc4ccoc4cc3oc1=O)OCO2"
tgt = "Plasmodium falciparum K1CB1"
value_kind = "IC50"
recorded_measurement = "> 32.3 µM"

[[record]]
molecule = "O=C1c2cc3ccoc3cc2O[C@@H]2COc3cc4c(cc3[C@H]12)OCO4"
tgt = "Plasmodium falciparum K1CB1"
value_kind = "IC50"
recorded_measurement = "> 29.6 µM"

[[record]]
molecule = "C=C(C)C1Cc2c(ccc3c2O[C@@H]2COc4cc(OC)c(OC)cc4[C@]2(O)C3=O)O1 (stereo partly shown) [Compound 21, 12a-hydroxyrotenone]"
tgt = "Plasmodium falciparum K1CB1"
value_kind = "IC50"
recorded_measurement = "> 27.6 µM"

[[record]]
molecule = "C=C(C)[C@H]1Cc2c(ccc3c2O[C@@H]2COc4cc(OC)c(OC)cc4[C@@H]2C3=O)O1"
tgt = "Plasmodium falciparum K1CB1"
value_kind = "IC50"
recorded_measurement = "> 26.2 µM"

